The following sequences are listed with their measured PBM binding z-score values.
Tested on: RXRa DBDmut IVT, anti-RXR (DBD mutation: RXRa K156A/R161A, NR concentration 90 nM)
Test: PBM binding z-score (relative to random genomic background probes); higher = stronger binding; sequences stand for … in GC…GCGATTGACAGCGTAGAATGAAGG
Give the value as a plain number.

# CHAIN SEQUENCE, RESULT TYPE, QUANTITATIVE READOUT
measured = [
    ("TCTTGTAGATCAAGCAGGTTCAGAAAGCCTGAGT", "PBM binding z-score", 0.872),
]

Exercise: Give a short answer stating reported PBM binding z-score for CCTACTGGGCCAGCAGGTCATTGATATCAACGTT .
Key: -0.531

Exercise: Answer with the recorded PBM binding z-score for the sequence listed here: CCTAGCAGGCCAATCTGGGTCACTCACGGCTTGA
Key: 0.336

Exercise: Hello, please tell me recorded PBM binding z-score for this one: TCATGTAGGTAAACAGGTGAAAGTCCGTAAGTTA
Key: 0.975

Exercise: Please report the measured PBM binding z-score for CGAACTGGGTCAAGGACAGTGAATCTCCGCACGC
Key: 0.955

Exercise: Using known records, supply PBM binding z-score for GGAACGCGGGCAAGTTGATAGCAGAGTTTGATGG
Key: 0.0062

----------
System: LXRb:RXRa (NR concentration 270 nM, RXRa partner concentration 90 nM)
Test: PBM binding z-score (relative to random genomic background probes); higher = stronger binding; sequences stand for … in GC…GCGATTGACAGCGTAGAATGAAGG
Decision: PBM binding z-score >= 1 yields Criterion met, all other cases yield Criterion not met.

# example entries with known answers
# CHAIN SEQUENCE, ASSIGNED LABEL
measured = [
    ("TCATATAGGAAAAGGTGAAAGTCGAACGATATGA", "Criterion met"),
    ("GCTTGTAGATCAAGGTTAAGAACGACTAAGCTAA", "Criterion not met"),
    ("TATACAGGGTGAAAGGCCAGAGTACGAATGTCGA", "Criterion met"),
    ("TCATATAGGTAATACAGGTCAAAGTCGGCATCTA", "Criterion met"),
]

--- query ---
Exercise: # check: PBM binding z-score of AGAACGAGGGCACGCTGAGTTGATCGCAGAGTAG is greater than or equal to 1
Key: Criterion not met

----------
Entries annotated with measured PBM binding z-score
Test system: PPARg:RXRa 270nM:90nM, anti-RXR (NR concentration 270 nM, RXRa partner concentration 90 nM)
Assay: PBM binding z-score (relative to random genomic background probes); higher = stronger binding; sequences stand for … in GC…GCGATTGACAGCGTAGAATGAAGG
Respond using a number only.

Examples with their reported PBM binding z-score follow.
# CHAIN SEQUENCE, PBM binding z-score
data = [
    ("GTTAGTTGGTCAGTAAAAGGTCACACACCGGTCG", 4.81),
    ("CCTACTGGCCCATTCAGAGGTCATTGATCATATG", 1.44),
    ("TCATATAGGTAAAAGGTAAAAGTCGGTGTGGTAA", 7.76),
    ("GCATATAGCTAATACAAGGTGAAAGTCCGATTGT", 0.425),
    ("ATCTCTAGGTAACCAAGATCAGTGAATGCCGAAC", 0.588),
    ("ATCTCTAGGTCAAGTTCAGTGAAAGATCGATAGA", 5.4),
]

Exercise: Recall and state the measured PBM binding z-score for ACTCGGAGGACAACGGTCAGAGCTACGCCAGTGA .
Key: 0.638

Exercise: Give recorded PBM binding z-score. ATACCAAGGTGATCGTCAGGTCGTTGATACTAAC
Key: 0.265

Exercise: Tell me measured PBM binding z-score for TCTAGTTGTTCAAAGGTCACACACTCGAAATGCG please.
Key: 7.68

Exercise: Please supply the value of reported PBM binding z-score for the item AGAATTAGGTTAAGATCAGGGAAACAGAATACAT
Key: 2.93

Exercise: Input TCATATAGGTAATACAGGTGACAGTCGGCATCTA , output reported PBM binding z-score.
Key: 2.52

Exercise: Consider the sequence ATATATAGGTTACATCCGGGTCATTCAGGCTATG and give its recorded PBM binding z-score.
Key: 5.45

Exercise: Output measured PBM binding z-score for this item: ATCTCTAGGCAAAGATAGTTCAGTGAATGCAAAT
Key: -0.151

Exercise: Give reported PBM binding z-score value for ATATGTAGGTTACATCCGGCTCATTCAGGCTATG
Key: 3.99

Exercise: For the sequence CGTCCAAGGTCATAGGAGGTCTGTGAAGACAGAT , report PBM binding z-score.
Key: 5.2

Exercise: For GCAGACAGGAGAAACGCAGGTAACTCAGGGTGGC , write its PBM binding z-score.
Key: -0.659

Exercise: Annotate the sequence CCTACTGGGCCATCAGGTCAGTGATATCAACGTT with its measured PBM binding z-score.
Key: 2.42

Exercise: Answer with the recorded PBM binding z-score of TTACCAAGGTGAAAGGTCGTGGATGCACGCCTTG only.
Key: 8.31

Exercise: Tell us which PBM binding z-score value is on record for CCAGACAGGTGAGAAGGTACCTCAGCCTCGATTA
Key: 0.244

Exercise: Kindly indicate its recorded PBM binding z-score. Item: AGAATGAGGTTATACGTAGATCAGGGAGGAAAGT
Key: 2.09

Exercise: Could you please provide reported PBM binding z-score for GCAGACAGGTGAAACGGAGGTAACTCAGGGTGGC ? Thanks!
Key: 0.393

Exercise: Dear colleague, please send me the reported PBM binding z-score for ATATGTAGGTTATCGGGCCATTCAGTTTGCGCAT when you can.
Key: 4.45

Exercise: Complete the entry with PBM binding z-score for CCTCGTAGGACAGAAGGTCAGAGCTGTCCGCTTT
Key: 1.14

Exercise: Find the measured PBM binding z-score of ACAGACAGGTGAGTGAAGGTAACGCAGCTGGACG and report it.
Key: 0.162

Exercise: Given the sequence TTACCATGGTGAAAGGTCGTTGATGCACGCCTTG , write its reported PBM binding z-score.
Key: 6.89

Exercise: Give PBM binding z-score for the following sequence: TAGCCTAGGTCATGGGCCATTATACCACGCGAAC
Key: 4.26
